- Test system: HOP-92 NSCLC
- protocol.description: NCI-60 one-dose screen, 48 h (100 = growth as untreated, 0 = no growth, -100 = all killed)
- condition.label: 10 µM unless noted
Compounds without any hit were thinned out: in the full panel of roughly 83,000, 20% have a hit.
assay.metric: growth (%)
One number for each entry, in %.

Recorded results for 8 compounds are shown here.
FC(F)(F)c1cccc(Nc2nc(-c3ccccc3)nc3ncccc23)c1    -67.3
CCOC(=O)c1ccc(N=Cc2sc(=O)[nH]c2O)cc1    90.1
COC(=O)[C@H]1CCCN1C(=O)[C@H]1CCCN1C(=O)[C@H](Cc1c[nH]c2ccccc12)NC(=S)Nc1cc(C(F)(F)F)cc(C(F)(F)F)c1    88.8
COc1cccc2c(=O)c3c(sc12)c(NCCCNCCO)nc1ccccc13    10.2
O=C(/C=C/c1ccc(C(F)(F)F)cc1)c1ccc(Nc2nc(NCCO)nc(Nc3ccc(Cl)cc3)n2)cc1    70.5
COc1ccc(Nc2nc(N/N=C/c3ccc(O)cc3)nc(Nc3ccc([N+](=O)[O-])cc3)n2)cc1    109
S=C1NC2(c3ccccc3)CCC(=S)N2c2ccccc21 (stereo not given)    99.1
C#CCn1cc(C=C2C(=O)NC(=O)NC2=O)c2cc(Cl)ccc21    88.7

Give growth for each listed item.
1. O=C(Nc1ccc(F)cc1F)c1cc(Br)ccc1O
2. O=c1cc(NC2CCN(CCCc3ccccc3)CC2)c2cc(Cl)ccc2o1
3. Cc1ccccc1CNC(=O)C1CN(c2ccc(Cl)cc2)N(c2ccc(Cl)cc2)C1=O (stereo not given)
4. CN1CCN(c2nc(Nc3ccc(O)cc3)nc3ccccc23)CC1
5. O=c1oc2ccc(I)cc2c(=O)n1-c1ccc(Br)cc1F

-25.6
-26.1
96.9
89.6
-11.7

Give growth for each listed item.
1. CN1C(=O)N(C)C2Nn3c(s/c(=C4\C(=O)N(CCc5ccccc5)c5ccccc54)c3=O)=NC21 (stereo not given)
2. Nc1nc2c(ncn2[C@@H]2O[C@H](CS)[C@@H](O)[C@H]2O)c(=O)[nH]1

93.2
103
